target or system: motilin receptor (Oryctolagus cuniculus)
Construct: from tissue; host or cells: rabbit antral smooth muscle membranes
Sequence (G1T803 1-400): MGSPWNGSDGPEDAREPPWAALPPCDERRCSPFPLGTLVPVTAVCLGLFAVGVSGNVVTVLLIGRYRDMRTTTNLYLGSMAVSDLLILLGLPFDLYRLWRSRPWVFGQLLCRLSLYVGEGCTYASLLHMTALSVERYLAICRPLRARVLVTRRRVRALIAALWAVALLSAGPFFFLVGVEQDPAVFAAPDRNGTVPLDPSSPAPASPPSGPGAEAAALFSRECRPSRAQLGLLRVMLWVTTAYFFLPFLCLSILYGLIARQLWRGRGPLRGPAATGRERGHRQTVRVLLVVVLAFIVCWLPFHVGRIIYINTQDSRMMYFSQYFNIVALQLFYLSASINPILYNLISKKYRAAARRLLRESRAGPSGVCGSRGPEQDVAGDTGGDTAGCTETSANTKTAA
protocol: Determination of motilin receptor binding affinity (displacement of [125I-Tyr7, Nle13]motilin(porcine))
Set-up: species or system rabbit
measurement parameters: negative logarithm of the concentration displacing 50% of [125I-Tyr7, Nle13]motilin(porcine) from rabbit antral smooth muscle membranes; read-out: pIC50 (converted)
Square brackets hold non-standard residues; d marks the D form. Peptide text beside a SMILES is read from it. * marks the point of attachment. X1 = C[N+](C)(C)[C@@H](Cc1ccccc1)C(=O)*; NMe2Phe = CN(C)[C@@H](Cc1ccccc1)C(=O)*; dOrn = NCCC[C@@H](N)C(=O)O
property label: IC50 (nM)
# unit: nM | format: bare number

compound	reading
CC[C@H](C)[C@H](NC(=O)[C@@H]1CCCN1C(=O)[C@@H](NC(=O)[C@@H](N)Cc1ccccc1)C(C)C)C(=O)N[C@@H](Cc1ccccc1)C(=O)N[C@H](C(=O)N[C@@H](Cc1ccc(O)cc1)C(=O)NCC(=O)N[C@@H](CCC(=O)O)C(=O)N[C@@H](CC(C)C)C(=O)N[C@@H](CCC(N)=O)C(=O)N[C@H](CCCN)C(=O)N[C@@H](CC(C)C)C(=O)N[C@@H](CCC(N)=O)C(=O)O)[C@@H](C)O [[D-Orn^12, Leu^13]pMOT(1-14)] (H-FVPIFTYGELQ[dOrn]LQ-OH)	4.27
CC[C@H](C)[C@H](NC(=O)[C@H](C)NC(=O)[C@@H](NC(=O)[C@H](Cc1ccccc1)[N+](C)(C)C)C(C)C)C(=O)N[C@@H](Cc1ccccc1)C(=O)N[C@H](C(=O)N[C@@H](Cc1ccc(O)cc1)C(=O)NCC(=O)N[C@@H](CCC(=O)O)C(=O)N[C@@H](CC(C)C)C(=O)N[C@@H](C)C(=O)N[C@H](CCCNC(=N)N)C(=O)N[C@@H](CC(C)C)C(=O)N[C@H](CCC(N)=O)C(N)=O)[C@@H](C)O (X1-VAIFTYGELA[dR]L[dQ]-NH2)	1.45
CC[C@H](C)[C@H](NC(=O)[C@@H]1CCCN1C(=O)[C@@H](NC(=O)[C@H](Cc1ccccc1)N(C)C)C(C)C)C(=O)N[C@@H](Cc1ccccc1)C(=O)N[C@H](C(=O)N[C@@H](Cc1ccc(O)cc1)C(=O)NCC(=O)N[C@@H](CCC(=O)O)C(=O)N[C@@H](CC(C)C)C(=O)N[C@@H](C)C(=O)N[C@H](CCCNC(=N)N)C(=O)N[C@@H](CC(C)C)C(=O)N[C@@H](CCCCN)C(N)=O)[C@@H](C)O (NMe2Phe-VPIFTYGELA[dR]LK-NH2)	1.23
CC[C@H](C)[C@H](NC(=O)[C@@H]1CCCN1C(=O)[C@@H](NC(=O)[C@@H](N)Cc1ccccc1)C(C)C)C(=O)N[C@@H](Cc1ccccc1)C(=O)N[C@H](C(=O)N[C@@H](Cc1ccc(O)cc1)C(=O)NCC(=O)N[C@@H](CCC(=O)O)C(=O)N[C@@H](CC(C)C)C(=O)N[C@@H](CCC(N)=O)C(=O)N[C@H](CCCNC(=N)N)C(=O)N[C@@H](CC(C)C)C(=O)N[C@@H](CCC(N)=O)C(=O)O)[C@@H](C)O [[D-Arg^13, Leu^13]pMOT(1-14)] (H-FVPIFTYGELQ[dR]LQ-OH)	0.977
CC[C@H](C)[C@H](NC(=O)[C@@H]1CCCN1C(=O)[C@@H](NC(=O)[C@H](Cc1ccccc1)N(C)C)C(C)C)C(=O)N[C@@H](Cc1ccccc1)C(=O)N[C@H](C(=O)N[C@@H](Cc1ccc(O)cc1)C(=O)NCC(=O)N[C@@H](CCC(=O)O)C(=O)N[C@@H](CC(C)C)C(=O)N[C@@H](CCC(N)=O)C(=O)N[C@H](CCCNC(=N)N)C(=O)N[C@@H](CC(C)C)C(=O)N[C@@H](CCCCN)C(N)=O)[C@@H](C)O (NMe2Phe-VPIFTYGELQ[dR]LK-NH2)	1.17
CC[C@H](C)[C@H](NC(=O)[C@H](C)NC(=O)[C@@H](NC(=O)[C@@H](N)Cc1ccccc1)C(C)C)C(=O)N[C@@H](Cc1ccccc1)C(=O)N[C@H](C(=O)N[C@@H](Cc1ccc(O)cc1)C(=O)NCC(=O)N[C@@H](CCC(=O)O)C(=O)N[C@@H](CC(C)C)C(=O)N[C@@H](CCC(N)=O)C(=O)N[C@H](CCCNC(=N)N)C(=O)N[C@@H](CC(C)C)C(=O)N[C@@H](CCC(N)=O)C(N)=O)[C@@H](C)O (H-FVAIFTYGELQ[dR]LQ-NH2)	1.95
CC[C@H](C)[C@H](NC(=O)[C@@H]1CCCN1C(=O)[C@@H](NC(=O)[C@H](Cc1ccccc1)N(C)C)C(C)C)C(=O)N[C@@H](Cc1ccccc1)C(=O)N[C@H](C(=O)N[C@@H](Cc1ccc(O)cc1)C(=O)NCC(=O)N[C@@H](CCC(=O)O)C(=O)N[C@@H](CC(C)C)C(=O)N[C@@H](C)C(=O)N[C@H](CCCNC(=N)N)C(=O)N[C@@H](CC(C)C)C(=O)N[C@H](CCCCN)C(N)=O)[C@@H](C)O (NMe2Phe-VPIFTYGELA[dR]L[dK]-NH2)	1.45
CC[C@H](C)[C@H](NC(=O)[C@H](C)NC(=O)[C@@H](NC(=O)[C@H](Cc1ccccc1)[N+](C)(C)C)C(C)C)C(=O)N[C@@H](Cc1ccccc1)C(=O)N[C@H](C(=O)N[C@@H](Cc1ccc(O)cc1)C(=O)NCC(=O)N[C@@H](CCC(=O)O)C(=O)N[C@@H](CC(C)C)C(=O)N[C@@H](CCC(N)=O)C(=O)N[C@H](CCCNC(=N)N)C(=O)N[C@@H](CC(C)C)C(=O)N[C@@H](CCC(N)=O)C(N)=O)[C@@H](C)O (X1-VAIFTYGELQ[dR]LQ-NH2)	1.62

Q. Returns the measured IC50 for the input compound. Input: CC[C@H](C)[C@H](NC(=O)[C@@H]1CCCN1C(=O)[C@@H](NC(=O)[C@@H](N)Cc1ccccc1)C(C)C)C(=O)N[C@@H](Cc1ccccc1)C(=O)N[C@H](C(=O)N[C@@H](Cc1ccc(O)cc1)C(=O)NCC(=O)N[C@@H](CCC(=O)O)C(=O)N[C@@H](CC(C)C)C(=O)N[C@@H](C)C(=O)N[C@H](CCCNC(=N)N)C(=O)N[C@@H](CC(C)C)C(=O)N[C@@H](CCC(N)=O)C(=O)O)[C@@H](C)O [[Ala^11, D-Arg^12, Leu^13]pMOT(1-14)] (H-FVPIFTYGELA[dR]LQ-OH)
A. 1.66

Q. For the compound CC[C@H](C)[C@H](NC(=O)[C@@H]1CCCN1C(=O)[C@@H](NC(=O)[C@@H](N)Cc1ccccc1)C(C)C)C(=O)N[C@@H](Cc1ccccc1)C(=O)N[C@H](C(=O)N[C@@H](Cc1ccc(O)cc1)C(=O)NCC(=O)N[C@@H](CCC(=O)O)C(=O)N[C@@H](CC(C)C)C(=O)N[C@@H](CCC(N)=O)C(=O)N[C@H](CCC(N)=O)C(=O)N[C@@H](CC(C)C)C(=O)N[C@@H](CCC(N)=O)C(=O)O)[C@@H](C)O [[D-Gln^12, Leu^13]pMOT(1-14)] (H-FVPIFTYGELQ[dQ]LQ-OH) , what IC50 is on record?
A. 5.62

* * *

target or system: UniProtKB G1T803
protocol: Rabbit duodenal smooth muscle strip tissue bath assay
Format: cell-based
measurement parameters: negative logarithm of the dose giving 50% of the maximal response to motilin; isotonic contraction of rabbit duodenum segments
Counter-ions that a name gives are not always drawn. Square brackets hold non-standard residues; d marks the D form. Peptide text beside a SMILES is read from it. * marks the point of attachment. X1 = C[N+](C)(C)[C@@H](Cc1ccccc1)C(=O)*; NMe2Phe = CN(C)[C@@H](Cc1ccccc1)C(=O)*; Cha = N[C@@H](CC1CCCCC1)C(=O)O
property label: pEC50

compound	pEC50
CC[C@H](C)[C@H](NC(=O)[C@@H]1CCCN1C(=O)[C@@H](NC(=O)[C@@H](N)Cc1ccccc1)C(C)C)C(=O)N[C@@H](Cc1ccccc1)C(=O)N[C@H](C(=O)N[C@@H](Cc1ccc(O)cc1)C(=O)NCC(=O)N[C@@H](CCC(=O)O)C(=O)N[C@@H](CC(C)C)C(=O)N[C@@H](CCC(N)=O)C(=O)N[C@H](CCC(N)=O)C(=O)N[C@@H](CC(C)C)C(=O)N[C@@H](CCC(N)=O)C(=O)O)[C@@H](C)O [[D-Gln^12, Leu^13]pMOT(1-14)] (H-FVPIFTYGELQ[dQ]LQ-OH)	7.06
CC[C@H](C)[C@H](NC(=O)[C@@H]1CCCN1C(=O)[C@@H](NC(=O)[C@@H](N)Cc1ccccc1)C(C)C)C(=O)N[C@@H](CC1CCCCC1)C(=O)N[C@H](C(=O)N[C@@H](Cc1ccc(O)cc1)C(=O)NCC(=O)N[C@@H](CCC(=O)O)C(=O)N[C@@H](CC(C)C)C(=O)N[C@@H](CCC(N)=O)C(=O)N[C@H](CCCNC(=N)N)C(=O)N[C@@H](CC(C)C)C(=O)N[C@@H](CCC(N)=O)C(N)=O)[C@@H](C)O (H-FVPI[Cha]TYGELQ[dR]LQ-NH2)	7.30
CC[C@H](C)[C@H](NC(=O)[C@H](C)NC(=O)[C@@H](NC(=O)[C@H](Cc1ccccc1)N(C)C)C(C)C)C(=O)N[C@@H](Cc1ccccc1)C(=O)N[C@H](C(=O)N[C@@H](Cc1ccc(O)cc1)C(=O)NCC(=O)N[C@@H](CCC(=O)O)C(=O)N[C@@H](CC(C)C)C(=O)N[C@@H](C)C(=O)N[C@H](CCCNC(=N)N)C(=O)N[C@@H](CC(C)C)C(=O)N[C@@H](CCCCN)C(N)=O)[C@@H](C)O (NMe2Phe-VAIFTYGELA[dR]LK-NH2)	7.74
CC[C@H](C)[C@H](NC(=O)[C@@H]1CCCN1C(=O)[C@@H](NC(=O)[C@H](Cc1ccccc1)[N+](C)(C)C)C(C)C)C(=O)N[C@@H](Cc1ccccc1)C(=O)N[C@H](C(=O)N[C@@H](Cc1ccc(O)cc1)C(=O)NCC(=O)N[C@@H](CCC(=O)O)C(=O)N[C@@H](CC(C)C)C(=O)N[C@@H](CCC(N)=O)C(=O)N[C@@H](CCCNC(=N)N)C(=O)N[C@@H](CC(C)C)C(=O)N[C@@H](CCC(N)=O)C(=O)O)[C@@H](C)O [[Me3 N^+ Phe^1, Leu^13]pMOT(1-14), Bis-trifluoroacetate Salt] (X1-VPIFTYGELQRLQ-OH)	7.69

Then this compound:
Q. Requested read-out: pEC50. Entry: CC[C@H](C)[C@H](NC(=O)[C@H](C)NC(=O)[C@@H](NC(=O)[C@H](Cc1ccccc1)[N+](C)(C)C)C(C)C)C(=O)N[C@@H](Cc1ccccc1)C(=O)N[C@H](C(=O)N[C@@H](Cc1ccc(O)cc1)C(=O)NCC(=O)N[C@@H](CCC(=O)O)C(=O)N[C@@H](CC(C)C)C(=O)N[C@@H](CCC(N)=O)C(=O)N[C@H](CCCNC(=N)N)C(=O)N[C@@H](CC(C)C)C(=O)N[C@@H](CCC(N)=O)C(N)=O)[C@@H](C)O [[Me3 N^+ Phe^1, Ala^3, D-Arg^13, Leu^13 ]pMOT(1-14) amide] (X1-VAIFTYGELQ[dR]LQ-NH2)
A. 7.32
